- tested.system: T1, mouse ACVR2A (mouse, UniProt P27038 20-135, limits assumed); also: test concentration or dose not given here
- T1 construct: coated antigen of the initial ELISA
- T1 sequence (P27038 20-135 limits assumed): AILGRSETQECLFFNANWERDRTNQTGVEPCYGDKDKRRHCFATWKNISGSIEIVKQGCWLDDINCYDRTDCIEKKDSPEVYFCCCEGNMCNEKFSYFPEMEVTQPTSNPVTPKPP
- experimental.details: ELISA
measurement.name: optical density (OD)
Provide the reading as a plain figure in OD.

Some binders with known optical density results, for comparison:
375_E03 (antibody, V domains shown, Group III) VH: EVQLLESGGGLVQPGGSLRLSCAASGFTFSDYSMNWVRQAPGKGLEWVANINYNGGYTGYADSVKGRFTISRDNSKNTLYLQMNSLRAEDTAVYYCARGANWHDTHLDYWGQGTLVTVSS VL: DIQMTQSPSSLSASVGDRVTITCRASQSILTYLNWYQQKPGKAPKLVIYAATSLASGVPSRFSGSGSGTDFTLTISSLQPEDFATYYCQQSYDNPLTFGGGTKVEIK
3.64
375_A07 (antibody, V domains shown, Group III) VH: EVQLLESGGGLVQPGGSLRLSCAASGFTFDSYSMNWVRQAPGKGLEWVSSINYNSGYTGYADSVKGRFTISRDNSKNTLYLQMNSLRAEDTAVYYCARGANWHDTHLDYWGQGTLVTVSS VL: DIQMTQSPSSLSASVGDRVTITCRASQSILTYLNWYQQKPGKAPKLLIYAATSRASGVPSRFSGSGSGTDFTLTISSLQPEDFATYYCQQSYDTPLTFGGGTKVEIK
3.64
374_B08 (antibody, V domains shown, Group III) VH: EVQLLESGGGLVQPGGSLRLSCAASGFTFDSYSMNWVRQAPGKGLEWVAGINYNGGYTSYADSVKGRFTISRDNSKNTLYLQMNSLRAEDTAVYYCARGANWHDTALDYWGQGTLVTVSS VL: DIQMTQSPSSLSASVGDRVTITCRASQSIVSYVNWYQQKPGKAPKLLIYAATSRHSGVPSRFSGSGSGTDFTLTISSLQPEDFATYYCQQSYELPLTFGGGTKVEIK
3.63
376_E02 (antibody, V domains shown, Group III) VH: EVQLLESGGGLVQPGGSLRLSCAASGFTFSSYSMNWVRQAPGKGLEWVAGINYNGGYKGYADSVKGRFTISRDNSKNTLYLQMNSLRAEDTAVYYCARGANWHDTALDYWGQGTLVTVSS VL: DIQMTQSPSSLSASVGDRVTITCRASQSILSYVNWYQQKPGKAPKLVIYAATSRHSGVPSRFSGSGSGTDFTLTISSLQPEDFATYYCQQSDNTPLTFGGGTKVEIK
3.38
376_E11 (antibody, V domains shown, Group III) VH: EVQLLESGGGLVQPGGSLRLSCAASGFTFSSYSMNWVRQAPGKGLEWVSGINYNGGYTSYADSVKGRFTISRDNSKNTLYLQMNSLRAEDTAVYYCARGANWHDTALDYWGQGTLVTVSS VL: DIQMTQSPSSLSASVGDRVTITCRASQSILTYVNWYQQKPGKAPKLVIYAATSRASGVPSRFSGSGSGTDFTLTISSLQPEDFATYYCQQSYELPLTFGGGTKVEIK
3.65

Entry 374_D06 (antibody, V domains shown, Group III) VH: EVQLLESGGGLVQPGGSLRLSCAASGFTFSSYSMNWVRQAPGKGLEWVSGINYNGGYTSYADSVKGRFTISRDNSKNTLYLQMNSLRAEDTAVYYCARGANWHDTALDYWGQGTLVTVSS VL: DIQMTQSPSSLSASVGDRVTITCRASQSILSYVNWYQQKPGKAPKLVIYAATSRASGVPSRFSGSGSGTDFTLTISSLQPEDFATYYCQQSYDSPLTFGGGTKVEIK — recorded optical density = 3.67
